System: rat adjuvant-induced arthritis
experimentalProtocol: Inhibitory Action on Adjuvant Arthritis (1) (Assay Example 2)
Assay type: in vivo, male Fisher rats
experimentalParameters: oral 5 mg/kg, days 0, 3, 7, 10, 14, 17, 20; measured day 21
valueKind: Edema Inhibition (%) Right Hind Paw (Inflamed Paw)

Recorded result, Cc1ccc(-c2cc(C(F)(F)F)nn2-c2ccc(S(N)(=O)=O)cc2)cc1 [YM-177, reference compound] , Edema Inhibition (%) Right Hind Paw (Inflamed Paw): 37%

Recorded result, CS(=O)(=O)c1ccc(-n2nc(C(F)(F)F)cc2-c2nc3ccc(F)cc3s2)cc1 , Edema Inhibition (%) Right Hind Paw (Inflamed Paw): 94%

Recorded result, NS(=O)(=O)c1ccc(-n2nc(C(F)(F)F)cc2-c2nc3ccc(F)cc3s2)cc1 , Edema Inhibition (%) Right Hind Paw (Inflamed Paw): 71%

Recorded result, COc1ccc2c(c1)c(CC(=O)O)c(C)n2C(=O)c1ccc(Cl)cc1 [Indomethacin, reference compound] , Edema Inhibition (%) Right Hind Paw (Inflamed Paw): 43%

Recorded result, CS(=O)(=O)c1ccc(-n2nc(C(F)(F)F)cc2-c2nc3cc(F)ccc3s2)cc1 , Edema Inhibition (%) Right Hind Paw (Inflamed Paw): 83%

Recorded result, CS(=O)(=O)c1ccc(-n2nc(C(F)(F)F)cc2-c2ccc(F)cc2)cc1 [SC-58125, reference compound] , Edema Inhibition (%) Right Hind Paw (Inflamed Paw): 76%

Recorded result, CS(=O)(=O)c1ccc(-n2nc(C(F)(F)F)cc2-c2nc3c(F)cccc3s2)cc1 , Edema Inhibition (%) Right Hind Paw (Inflamed Paw): 84%
